biological target: T1, HLA-A*01:01 (human); experiment: UV-ligand exchange, anti-b2m ELISA
T1 construct: MHC class I monomer first loaded with a UV-sensitive peptide (not identified) that is cleaved by UV irradiation and exchanged for the tested peptide; captured on streptavidin plates, detected with anti-β2m; also called peptide-receptive MHC molecules
Overview of reported peptide exchange yield across a group of binders:
endpoint: peptide exchange yield

binder	endpoint	recorded_result
KAFQELGVRY	peptide exchange yield	20 to 50%
SSERGSPIEKY	peptide exchange yield	50 to 75%
IMLSVDQHLY	peptide exchange yield	50 to 75%
SSDFDPLVY	peptide exchange yield	> 75%
LTDTGYLQLY	peptide exchange yield	> 75%
SSDIVALGGFLY	peptide exchange yield	50 to 75%
FTRAFDQLRM	peptide exchange yield	50 to 75%
TVFDENLSRY	peptide exchange yield	20 to 50%
IVADDTVY	peptide exchange yield	50 to 75%
TFDKQIVLL	peptide exchange yield	20 to 50%
AVNALQSVY	peptide exchange yield	20 to 50%
TLDSTRTLY	peptide exchange yield	> 75%
YTEFVDATFTK	peptide exchange yield	> 75%
LLEADPFLKY	peptide exchange yield	> 75%
FTDSQGNDIK	peptide exchange yield	50 to 75%
YSPDSFNVSW	peptide exchange yield	20 to 50%
SIEVFTHY	peptide exchange yield	50 to 75%
TEEKFVSY	peptide exchange yield	10 to 20%
RSDIGEFEW	peptide exchange yield	20 to 50%
RTDEGDNRVW	peptide exchange yield	20 to 50%
DTLEAATSLY	peptide exchange yield	20 to 50%
FVDTKVPEH	peptide exchange yield	20 to 50%
AQEAAVFLTLY	peptide exchange yield	50 to 75%
FSENLIYTYI	peptide exchange yield	20 to 50%
LSSAVNPIIY	peptide exchange yield	20 to 50%
TLEDLDNLYNY	peptide exchange yield	50 to 75%
VLPHHSEGACVY	peptide exchange yield	50 to 75%
LSDIDSRYI	peptide exchange yield	20 to 50%
RQAPGPARDY	peptide exchange yield	20 to 50%
PSSMPECLSY	peptide exchange yield	> 75%
YMTSMALNY	peptide exchange yield	50 to 75%
VTEYAEEIYQY	peptide exchange yield	50 to 75%
